# System: BT-549 breast
# Protocol summary: NCI-60 one-dose screen, 48 h (100 = growth as untreated, 0 = no growth, -100 = all killed)
# Test context: 10 µM unless noted
Compounds without any hit were thinned out: in the full panel of roughly 83,000, 20% have a hit.
Measurement name: growth (%)
Just the number in %, nothing appended.

Sample records with growth:
Oc1c(Cl)cc(Cl)c2ccc(CN3CCNCC3)nc12    82.2
COc1ccc(C2=NN(C=O)C(c3ccc(Oc4nc5c(c(=O)n(C)c(=O)n5C)n4C)c(OC)c3)C2)cc1 (stereo not given)    96.9

[ask] Look at this compound and give its reported growth. COC(=O)c1nc(-c2ccc(C)cc2)oc1N1CCOCC1
[reply] 87.1

[ask] What value of growth has been reported for the following compound? O=C(/C=C/c1ccco1)Nc1ncc(Cc2ccc(F)cc2)s1
[reply] 24.2

[ask] Entry under review: Cc1[nH]c(C2CC(c3ccc(C(F)(F)F)c(F)c3)=NN2C)c(C)c1C(=O)NCC(F)(F)F (stereo not given) . Reported growth?
[reply] 107

====

Quick reference for growth among some compounds
# Test system: RXF 393 renal
# Protocol summary: NCI-60 one-dose screen, 48 h (100 = growth as untreated, 0 = no growth, -100 = all killed)
# Test context: 10 µM unless noted
About 83,000 compounds went through this panel and 20% of them were active in at least one assay; those are over-represented in the sample as a whole. The source made the active and inactive calls. Rule for the calls: active = growth percent below 10; inactive = the rest.

// known answers, use as guide
COC(=O)c1ccc(-n2cc(CCCOS(=O)(=O)c3ccc(F)cc3)nn2)cc1    105% (inactive)
COC(=O)[C@H]1Cc2c([nH]c3ccccc23)[C@H](c2ccc3c(c2)OCO3)N1    109% (inactive)
CCN1CCN(CCOc2ccc(CNc3ccc4nc(CCC5CCCCC5)[nH]c4c3)cc2)CC1    28.2% (inactive)

[ask] Look up growth: O=[N+]([O-])c1ccc(Oc2cccc3c(Oc4ccc([N+](=O)[O-])cc4[N+](=O)[O-])cccc23)c([N+](=O)[O-])c1
[reply] 96.4% (inactive)

====

# System: MALME-3M melanoma
# Protocol summary: NCI-60 one-dose screen, 48 h (100 = growth as untreated, 0 = no growth, -100 = all killed)
# Test context: 10 µM unless noted
The panel holds about 83,000 compounds, 20% with a hit somewhere; the sample as a whole holds those more often. The source made the active and inactive calls. How the source made its calls: active means growth percent below 10; inactive means the rest.
Entries and their growth values follow.

Reference set, count: 4
COC(=O)[C@H](C)NC(=O)[C@@H]1CCCN1C(=O)CNC(=O)[C@H](C)N    86.7% (inactive)
COc1ccc2c(c1)C(c1c[nH]c3ccccc13)(c1c[nH]c3ccccc13)CCO2    88.8% (inactive)
C=C1/C(=C\C=C2/CCC[C@]3(C)[C@@H]([C@H](C)CCCC(C)(C)O)CC[C@@H]23)C[C@@H](OC(=O)CBr)C[C@@H]1O    -67.3% (active)
COc1ccc(C(c2cc(OC)c(OC)c(OC)c2)n2cncn2)cc1O (stereo not given)    70.2% (inactive)

[ask] Could you share which growth value was measured for COc1ccc(C(=O)/C=C/c2ccc(C)cc2)cc1S(N)(=O)=O ?
[reply] 96.9% (inactive)

====

# Tested on: DU-145 prostate
# Protocol summary: NCI-60 one-dose screen, 48 h (100 = growth as untreated, 0 = no growth, -100 = all killed)
# Test context: 10 µM unless noted
The panel holds about 83,000 compounds, 20% with a hit somewhere; the sample as a whole holds those more often.
Listed molecules paired with reported growth
Give a bare numeral; the unit % is implied.

COc1cc(C2=Nc3c(N)nc(N)nc3NC(c3cccc(Nc4ccnc5cc(C(F)(F)F)ccc45)c3)C2)cc(OC)c1OC (stereo not given)    89.6
c1ccc(-c2cn3nc(-c4c[nH]c5ccccc45)sc3n2)cc1    98

[ask] // lookup growth for N#CC1=C(N)Oc2c(ccc3ccccc23)C1c1cc2ccccc2n2nnnc12 (stereo not given)
[reply] 19.5

[ask] # get_value(readout='growth', item= COc1cccc(C2C(C#N)=C(N)Oc3c2ccc2ccccc32)c1 (stereo not given) )
[reply] 16.9

[ask] For CNC(=O)c1cc(Oc2ccc3nc(NC(=O)c4cc(C(F)(F)F)cc(C(F)(F)F)c4)sc3c2)ccn1 , what is its reported growth?
[reply] 27.5

====

# Tested on: M14 melanoma
# Protocol summary: NCI-60 one-dose screen, 48 h
# Test context: 10 µM unless noted
# Procedure: Growth inhibition of the M14 human tumor cell line is measured as a screen for anti-cancer activity. Cells are grown in 96 well plates and exposed to the test compound for 48 hours. Compounds are tested at a single concentration, which is 10^-5 M for most compounds. The reported endpoint is percent growth (GI% or GIPRCNT), where numbers from 0 - 100% represent growth inhibition, and numbers from -100% - 0 represent cell death. For example, a value of 40 represents 60% growth inhibition. […]
Compounds without any hit were thinned out: in the full panel of roughly 83,000, 20% have a hit. The source made the active and inactive calls. The calls were made as follows: active = growth percent below 10; inactive = the rest.
Answer with one of the outcomes given here: active, inactive

Some solved entries appear below for comparison.
COc1ccc(/C=N\NC(=O)c2ccc3nc(-c4ccc(Cl)cc4)[nH]c3c2)cc1    inactive
O=C(Nc1ccccc1)Nc1ccccc1CNc1nc(Nc2ccc(OCCN3CCCC3)cc2)ncc1Cl    inactive
C[C@H]1c2ccccc2CN1CCCOc1cc2c(cc1OCC1CC1)C1(CCCC1)C(N)=N2    active
O=C(O)CCCN1C(=O)CSC1=S    inactive
CN1CCN(CC(=O)N(C)c2ccc(N=C(c3ccccc3)c3c(O)[nH]c4ccc([N+](=O)[O-])cc34)cc2)CC1    inactive

[ask] Hi team, can someone confirm the assay call for COC(=O)CCc1c(/C=C2\N=C(c3ccc[nH]3)C=C2OC)[nH]c(C)c1C(=O)OCc1ccccc1 ?
[reply] active

[ask] Test call for this compound, please: Cc1cc2c(C(C)C)c(O)c(O)c(/C=N/O)c2c(O)c1-c1c(C)cc2c(C(C)C)c(O)c(O)c(/C=N/O)c2c1O
[reply] active

====

# Tested on: SF-268 CNS
# Protocol summary: NCI-60 one-dose screen, 48 h (100 = growth as untreated, 0 = no growth, -100 = all killed)
# Test context: 10 µM unless noted
The panel holds about 83,000 compounds, 20% with a hit somewhere; the sample as a whole holds those more often.
Decide using growth alone. Strictly below 80%: yes. Equal to or above 80%: no.

Please review the entries below; each comes with its answer.
C=CCn1c(SCC(=O)Nc2ccc(C(=O)/C=C/c3ccc(Cl)cc3)cc2)nnc1-c1ccccc1    no
CC(C)n1cc(C2=C(c3cccc4ccccc34)C(=O)NC2=O)c2cc(Br)ccc21    yes
COc1cc2ncnc(Nc3ccc(S(=O)(=O)Nc4cc(C)on4)cc3)c2cc1OCCCN1CCOCC1    no
CCOC(=O)CC1C(CNC(=O)NC)OC(n2cnc3c(NC(=O)Nc4ccccc4)ncnc32)C1O[Si](C)(C)C(C)(C)C (centres undefined)    yes
COc1nc2ccccc2cc1/C=[N+](\[O-])c1ccccc1    yes

[ask] Does the reported growth of the following compound sit strictly below 80%? O=C(N/N=C/c1ccccc1Cl)c1ccccc1Nc1ccnc(C(F)(F)F)c1
[reply] yes

[ask] Please determine if O=C1N/C(=N/N=C(c2ccccc2)c2ccccc2)S/C1=C\c1ccc(Br)cc1 is below 80% in terms of growth.
[reply] no

[ask] In the record for COc1ccc2c(c1)c(-c1nc(-c3cn(C)c4ccncc34)cs1)cn2C , is growth less than 80%?
[reply] no

[ask] Bench note: check whether O=C(Nc1ccc(Oc2cccc(F)c2)c(Cl)c1)c1cnccn1 shows growth below 80%
[reply] yes

====

# Test system: NCI-H23 lung
# Protocol summary: NCI-60 one-dose screen, 48 h
# Test context: 10 µM unless noted
This is part of a sample that, as a whole, favours compounds with a hit. Of some 83,000 tested, about 20% had one in any assay. Calls of active or inactive are those of the source. Rule for the calls: active = growth percent below 10; inactive = the rest.
Write down one outcome, taken from active, inactive

Check out these entries, answers already filled in.
O=C(CSc1nc(-c2ccccc2)cn1-c1ccc(Cl)cc1)c1ccc([N+](=O)[O-])cc1    inactive
O=c1cc(-c2nccc3c2[nH]c2ccccc23)c2cc(Cl)ccc2o1    inactive
C#CC(F)(F)[C@]1(O)CCC2C3CCC4=CC(=O)CCC4=C3[C@@H](c3ccc(N(C)C)cc3)C[C@@]21C (stereo not given in full)    inactive
CC(=O)OCCOc1cc(Cl)c(Cl)cc1Cl    inactive
COc1cc2cc(Oc3ccc(NC(=O)Nc4ccc(Cl)c(Cl)c4)cc3)c(C)nc2cc1OCCN1CCCCC1    inactive
C#CCOc1cccc(Nc2ncnc3c(NC(=O)CCl)cccc23)c1    active
Oc1c(Cl)cc(Cl)c2ccc(CN3CCNCC3)nc12    inactive
CCN1C(=O)N(CC)C2C1NC(=S)N2/N=C/C=C/c1ccccc1 (stereo not given)    inactive

[ask] Please indicate how the test categorized COc1cc2c(cc1-c1c(C)noc1C)ncc1nc(C3CCOCC3)n(C3CCC(OC(F)F)CC3)c12 (stereo not given) .
[reply] inactive

[ask] Record request — test call for Cc1ccc(-c2nc(C#N)c(S(=O)(=O)n3nc(C)cc3N)o2)cc1
[reply] inactive
